- TARGET SYSTEM: T1, human full-length CD73 on hCD73-CHO-1C11 cells (human, UniProt P21589 27-549)
- T1 construct: it may be a nucleotide entry; also called CHO-CD73-1C11
- T1 sequence: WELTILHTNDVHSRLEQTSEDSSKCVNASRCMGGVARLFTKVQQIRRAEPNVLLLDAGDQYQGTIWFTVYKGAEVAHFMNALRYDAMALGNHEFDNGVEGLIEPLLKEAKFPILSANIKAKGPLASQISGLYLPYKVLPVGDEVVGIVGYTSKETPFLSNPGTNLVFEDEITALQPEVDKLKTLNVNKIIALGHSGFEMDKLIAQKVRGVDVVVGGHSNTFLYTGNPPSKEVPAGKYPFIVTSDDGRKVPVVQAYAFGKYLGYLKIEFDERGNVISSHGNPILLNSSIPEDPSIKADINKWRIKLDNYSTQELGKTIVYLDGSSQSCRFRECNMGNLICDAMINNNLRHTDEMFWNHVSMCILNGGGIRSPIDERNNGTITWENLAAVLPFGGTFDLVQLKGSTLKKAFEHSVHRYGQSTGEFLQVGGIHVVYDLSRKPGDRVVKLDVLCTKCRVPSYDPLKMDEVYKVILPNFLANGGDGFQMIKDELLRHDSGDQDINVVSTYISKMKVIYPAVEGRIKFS
- ASSAY TEXT: FACS on CHO-CD73-1C11 cells
REPORTED PROPERTY: EC50 (nM)
Write the value in nM as a bare number.

Sample answers from the record:
*Q* I'd like to know its EC50. The binder in question is CD73 antibody 8A8 (antibody, V domains shown, Mouse variable regions on human IgG heavy chain constant region and human kappa constant region (chimeric IgG); also called Clone 8A8) VH: QVQFQQSGAELARPGASVKLSCKASGYIFTSYWIQWIKQRPGQGLEWIGAIYPGDGDTRYTQKFKGKATLTADKSSSTAYMQLRSLASEDSAVYYCAGFASWGQGTLLTVSA VL: DIQMTQSPSSLSASLGERVSLTCRASQDIGESLIWLQQEPDGTIKRLIYATSSLDSGVPKRFSGSRSGSDYSLSISSLESDDFVDYYCLQYSSSPYTFGGGTKLEIK
*A* 1.47

*Q* Then what about the binder CD73 antibody 22C12 (antibody, V domains shown, Mouse variable regions on human IgG heavy chain constant region and human kappa constant region (chimeric IgG); also called Clone 22C12; mAb22C12) VH: QVQFQQSGAELARPGASVKLSCKASGYTFTGYWIQWVKQRPGQGLEWIGAIYPGDDDTRYTQKFKGRATLTADTSSSTAYMQLSSLASEDSAVYYCARGNWDDWDFDVWGAGTTVTVSS VL: DIQMTQTTSSLSASLGDRVTISCRASQDISNYLNWYQQKPDGTVKLLIHYTSRLHSGVPSRFSGSGSGTDYSLTISNLEQEDIATYFCQQGDTLPWTFGGGTKLEIK ?
*A* 1.43

Others:
*Q* I'd like to know its EC50. The binder in question is CD73 antibody 2H2 (antibody, V domains shown, also called Clone 2H2) VH: EVKLVESGGGLVQPGGSLKLSCATSGFTFSDYYMYWVRQTPEKRLEWVAYISNVGGSTYYPDTVKGRFTISRDNAKNTLYLQMSRLKSEDTAMYYCARGDGYYGYYFDVWGAGTTVTVSS VL: ENVLTQSPAIMSASPGEKVTMTCSASSSVSYMHWYQQKSGTSPKRWIYDTSKLASGVPTRFSGSGSGTSFSLTISSMEAEDAATYYCQQWSSNPYTFGGGTKLEIK
*A* 1.53
